Could you please report measured half-life for the items listed next?
assay-method-text: Balb/C mouse pharmacokinetics, oral 5 mg/kg
Format: in vivo, Balb/C mice
experimental-conditions: male, p.o. 5 mg/kg, plasma, read-out: Half-life t1/2 (converted)
The answer is to be given in h; state only the numeric part.

[Q] Kindly indicate its recorded half-life. Item: C#C[C@](C)(O)COc1cc(-c2ccc(N3CC4CC(C3)N4Cc3cnc(OC)c(F)c3)nc2)c2c(C#N)cnn2c1
[A] 3.05

[Q] Report measured half-life; entry is C#CC(C)(O)COc1cc(-c2ccc(N3CC4CC(C3)N4Cc3ccc(OC)nc3)nc2)c2c(C#N)cnn2c1 (centres unmarked)
[A] 2.4

[Q] Read off the recorded half-life for COc1ccc(CN2C3CC2CN(c2ccc(-c4cc(N5CC(C)(C#N)C5)cn5ncc(C#N)c45)cn2)C3)cn1
[A] 3.2

[Q] Supply half-life value. Item: COc1ccc(CN2C3CC2CN(c2ccc(-c4cc(OCC5(C#N)CCOCC5)cn5ncc(C#N)c45)cn2)C3)cn1
[A] 2.34

[Q] Please supply the value of reported half-life for the item C#C[C@](C)(O)COc1cc(-c2ccc(N3CC4CC(C3)N4Cc3ccc(OC)nc3)nc2)c2c(C#N)cnn2c1
[A] 1.2

[Q] Quickly give me recorded half-life for COc1ncc(CN2C3CC2CN(c2ccc(-c4cc(C#CC(C)(C)O)cn5ncc(C#N)c45)cn2)C3)cc1F
[A] 2.9

[Q] Give me measured half-life, please, for this molecule: COc1ncc(CN2C3CC2CN(c2ccc(-c4cc(OCC5(C#N)CC5)cn5ncc(C#N)c45)cn2)C3)cc1F
[A] 4.26

[Q] Read the entry COc1ncc(CN2C3CC2CN(c2ccc(-c4cc(OCC5(C#N)CCOCC5)cn5ncc(C#N)c45)cn2)C3)cc1F and write its reported half-life.
[A] 3.26

[Q] Report half-life, nothing else, for this molecule: COc1ncc(CN2C3CC2CN(c2ccc(-c4cc(C#C[C@@H](C)O)cn5ncc(C#N)c45)cn2)C3)cc1F
[A] 1.73

[Q] Give the value of half-life reported for the following: COc1ccc(CN2C3CC2CN(c2ccc(-c4cc(N5CC(C(C)(C)O)C5)cn5ncc(C#N)c45)cn2)C3)cn1
[A] 2.18

[Q] Note half-life for the molecule shown: COc1ccc(CN2C3CC2CN(c2ccc(-c4cc(C#CC(C)(C)O)cn5ncc(C#N)c45)cn2)C3)cn1
[A] 3.37

[Q] Give half-life for COc1ccc(CN2C3CC2CN(c2ccc(-c4cc(OCC5(C#N)CCC5)cn5ncc(C#N)c45)cn2)C3)cn1
[A] 2.19

[Q] Read off the recorded half-life for COc1ncc(CN2C3CC2CN(c2ccc(-c4cc(N5CC(C(C)(C)O)C5)cn5ncc(C#N)c45)cn2)C3)cc1F
[A] 2.66

[Q] Write down half-life measured for item C#C[C@@](C)(O)COc1cc(-c2ccc(N3CC4CC(C3)N4Cc3ccc(OC)nc3)nc2)c2c(C#N)cnn2c1
[A] 1.3

[Q] Check the records and state half-life for COc1ccc(CN2C3CC2CN(c2ccc(-c4cc(OCC(C)(C)C#N)cn5ncc(C#N)c45)cn2)C3)cn1
[A] 4.2

[Q] Consider the molecule CC1(NC(=O)c2ncccc2Cl)CCN(c2ccc(-c3cc(OCC4(C#N)CC4)cn4ncc(C#N)c34)cn2)CC1 . State its measured half-life.
[A] 1.7

[Q] Quick one: give measured half-life for COc1ccc(CN2C3CC2CN(c2ccc(-c4cc(OC[C@H]5C[C@@](C)(O)C5)cn5ncc(C#N)c45)cn2)C3)cn1
[A] 3.45
